- protocol_text: yeast display, Sf9 membrane polyspecificity reagent, FACS + sequencing; frameworks hold sequencing errors
observation_type: polyreactivity (PSR sort gate)

Solved cases (4 shown):
QVQLVESGGGLVQAGGRLRLSCAASGRTFPIYAMGWYRQAPGKERELVAAITRGGRTNYADSVKGRFTISRDNAKNTVYLQMNSLKPEDTAVYYCAARTYGTYLYAEYDYWGQGTQVTVSS high polyreactivity
QVQLVESGGGLVQAGGSLRLSCAASGIIFDSYAMGLYRQAPGKERELVAAITSRGGRTYYADSVKRRFTISRENAKNTVYLQMNSLKPEDTAVYYCAARAIYDRRTEGTSGYDYWGPGTQVTVSS low polyreactivity
QVQLVESGGGLVQAGGSLRLSCAASGLIFVDNAMGLYRQAPGKERELVAAIDSGGSTNYADSVKGRFTISRDNAKTTVYLQMNSLNPEDTAVYYCAADWIYAPWYYQESVEYYYWGQGTQVTVSS low polyreactivity
QVQLVESGGRLVQAGGSLRLSCAASGSTFVQNAMGWYRQATGKERELVAAISKSGGRTYYADSVKGRFTISRDNAKNTVYLQMNSLKPEDTAVYYCAAVTVASPTRMDYWGQGTQVTVSS high polyreactivity

Shift focus to the following entry.
Lab note: measured polyreactivity (PSR sort gate) of QVQLVESGGGLVQAGGSLRLSCAASGGTFGYYAMGWYIQAPGTERELVAAISWSGGSTYYADSVKGRFTISRDNAKNTVYLQMNSLKAEDTAVYYCNAVTRFGYVKFDYWGQGTQVTVSS was high polyreactivity
